Test: Phase 1 multiple ascending dose study of grapiprant tablets: serum pharmacokinetics
Type: in vivo, human
Details: human, serum, oral, 50 mg, 50 mg BID tablets, Day 14, healthy adults, serum, median

[
  {
    "smiles-structure": "CCc1nc2c(C)nc(C)cc2n1-c1ccc(CCNC(=O)NS(=O)(=O)c2ccc(C)cc2)cc1",
    "Tmax / h": 1.25
  }
]

* * *

Assay: Phase 1 multiple ascending dose study of grapiprant tablets: serum pharmacokinetics
Assay type: in vivo, human
Settings: human, serum, oral, 250 mg, 250 mg BID tablets, Day 17 (n = 14), elderly with mild renal impairment, serum, mean
Text: Serum pharmacokinetic parameters can be computed using WinNonlin Version 3.2 (Pharsight®, Mountain View, Calif.) using standard non-compartmental methods. […] As used herein, the term “AUC(0-tlast)” refers to the area under the serum concentration vs. time curve from time 0 to Tlast (the time of the last quantifiable concentration estimated using the linear/log trapezoidal approximation). […] As used herein, the term “t½” refers to terminal phase half-life calculated as ln(2)/kel. […]

[
  {
    "smiles-structure": "CCc1nc2c(C)nc(C)cc2n1-c1ccc(CCNC(=O)NS(=O)(=O)c2ccc(C)cc2)cc1",
    "unit-abbreviation": "ng/mL",
    "Cmax": 12300
  }
]
